Tested on: NCI-H522 lung
Test: NCI tumour cell line growth inhibition, 48 h; in the data active means GI50 below about 0.43 µM; inactive means the rest
Possible outcomes: 1 (active), -1 (inactive)

>>> assigned_class("CN(C)c1ccc2[nH]c(O)c(C=Nc3ccc(S(N)(=O)=O)cc3)c2c1")
-1
>>> assigned_class("CNC(=O)c1ccc(Nc2nc(OC3CCCC3)c3c(-c4ccc5nc(C)oc5c4)c[nH]c3n2)c(OC)c1")
-1
>>> assigned_class("COc1cc(/C=C2\\C[C@H]3[C@@H]4CC=C5C[C@@H](OC(C)=O)CC[C@]5(C)[C@H]4CC[C@]3(C)[C@H]2OC(C)=O)ccc1OCCCn1ccnc1")
-1
>>> assigned_class("COc1ccc(C(=O)c2ccc(OC)cc2OC)cc1")
-1
>>> assigned_class("CCSc1nc(=S)[nH]c2[nH]ncc12")
-1
>>> assigned_class("COC1(OC)C[C@H](C)[C@@]23O[C@]24c2cc(O)c5c(c2N[C@H]3C#C/C=C\\C#C[C@]14O)C(=O)c1ccccc1C5=O")
1
>>> assigned_class("O=C1CC(N2C(=O)/C(=C/C(Cl)=C\\c3ccc([N+](=O)[O-])cc3)SC2=S)C(=O)N1c1ccc(Cl)cc1 (stereo unspecified)")
-1
>>> assigned_class("COc1cc2c(cc1OCCCCCN1CCN(c3cc(=O)oc4c(C)c(OC)ccc34)CC1)N=C[C@@H]1CCCN1C2=O")
1
>>> assigned_class("COc1cc(N)ccc1Nc1c2ccccc2nc2ccccc12")
-1
>>> assigned_class("O=C(/C=C/C12c3ccccc3C(c3ccccc31)C1C(=O)NC(=O)C12)c1ccco1 (stereo unspecified)")
-1
>>> assigned_class("CCN(CC)CCCC(C)N/C(c1cccc(OC)c1)=c1\\c(=O)[nH]n(-c2c3ccccc3nc3ccccc23)c(=O)\\c1=C(/NC(C)CCCN(CC)CC)c1cccc(OC)c1 (stereo unspecified)")
-1

Attribution: PubChem BioAssay (NCI)
